TEST_METHOD_NOTES: BSK_LPS_PGE2: BioMAP Diversity Plus: LPS Assay for Prostaglandin E2 (PGE2) Biomarker Activity (AID 2283082)
CONDITION_LABEL: primary human HUVEC with PBMC; actives raise or lower the signal
The source made the active and inactive calls. Rule for the calls: active = hit-call score of the fitted dose curve at least 0.9, where 1 is the maximum; inactive = score below 0.9.
Tick one outcome: active, inactive

Solved cases (7 shown):
ClC(Cl)=C(Cl)C(Cl)=C(Cl)Cl :: inactive
CC1(C)Cc2cccc(O)c2O1 :: active
BrCCBr :: inactive
CCNc1nc(NC(C)(C)C)nc(SC)n1 :: inactive
Oc1cccc2cccnc12 :: active
COP(=S)(OC)Oc1c(Cl)cc(C)cc1Cl :: inactive
COP(=S)(OC)Oc1ccc(S(=O)(=O)N(C)C)cc1 :: inactive

Please turn your attention to the following entry.
Prompt line: Short answer needed: outcome of this test for O=C(O)C(Cl)(Cl)Cl ?
Response line: inactive

* * *

ASSAYED_TARGET: Nuclear receptor subfamily 1 group I member 2 (Homo sapiens) (UniProt O75469)
Sequence (O75469 whole entry, looked up): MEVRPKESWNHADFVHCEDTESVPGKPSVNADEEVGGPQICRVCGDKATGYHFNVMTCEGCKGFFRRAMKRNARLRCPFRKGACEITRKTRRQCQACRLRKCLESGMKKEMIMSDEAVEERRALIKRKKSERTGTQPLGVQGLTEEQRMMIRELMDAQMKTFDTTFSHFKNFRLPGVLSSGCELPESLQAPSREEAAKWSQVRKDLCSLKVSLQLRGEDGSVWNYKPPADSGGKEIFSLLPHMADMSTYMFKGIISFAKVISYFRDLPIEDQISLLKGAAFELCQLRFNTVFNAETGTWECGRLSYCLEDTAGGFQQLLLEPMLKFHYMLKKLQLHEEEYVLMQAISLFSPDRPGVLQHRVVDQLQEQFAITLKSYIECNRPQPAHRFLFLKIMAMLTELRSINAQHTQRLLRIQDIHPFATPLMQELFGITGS
TEST_METHOD_NOTES: ATG_PXR_TRANS: Attagene TRANS-FACTORIAL HepG2 Assay for human Pregnane X Receptor (PXR) (AID 2283008)
Inconclusive results are not listed. Calls of active or inactive are those of the source. The calls were made as follows: active = hit-call score of the fitted dose curve at least 0.9, where 1 is the maximum; inconclusive = response in the unintended direction; inactive = score below 0.9.
REPORTED_PROPERTY: AC50

Reference set (8 entries):
CC(C#N)CCC#N (centres undefined) :: inactive
O=C(OC1CCCCC1)c1ccccc1C(=O)OC1CCCCC1 :: 554 nM (active)
COP(=O)(OC)O/C(=C\Cl)c1cc(Cl)c(Cl)cc1Cl :: 862 nM (active)
CCC(C)(C)c1ccc(O)c(C(C)(C)CC)c1 :: 12600 nM (active)
CN(CCCC(=O)c1cccnc1)N=O :: inactive
Fc1ccc(C2(Cn3cncn3)OC2c2ccccc2Cl)cc1 (centres undefined) :: 2240 nM (active)
CCSC(C)CC1CC(=O)C(C(CC)=NOC/C=C/Cl)=C(O)C1 (centres undefined) :: 7440 nM (active)
CCN(CC)C(=O)Cl :: inactive

Continue with the compound presented below.
The compound listed as COC(=O)c1sccc1S(=O)(=O)NC(=O)Nc1nc(C)nc(OC)n1 has a reported AC50 of inactive

* * *

Read-out: Bcl-2 (BAD) gene, BAD (gene 572)
TEST_METHOD_NOTES: LTEA_HepaRG_BAD: Life Technologies and Expression Analysis (LTEA) Assay for Bcl-2 (BAD) gene using HepaRG (AID 2283469)
CONDITION_LABEL: mRNA level, 48 h; actives raise or lower the signal
The source made the active and inactive calls. The calls were made as follows: active = hit-call score of the fitted dose curve at least 0.9, where 1 is the maximum; inactive = score below 0.9.
Tick one outcome: active, inactive

Solved cases (4 shown):
CC(C)(OO)c1ccccc1 :: inactive
O=C1C2(Cl)C3(Cl)C4(Cl)C(Cl)(Cl)C5(Cl)C3(Cl)C1(Cl)C5(Cl)C24Cl (stereo not given) :: inactive
ClC1(Cl)C2(Cl)C3(Cl)C4(Cl)C(Cl)(Cl)C5(Cl)C3(Cl)C1(Cl)C5(Cl)C24Cl (stereo not given) :: inactive
CC(=O)[O][Hg][c]1ccccc1 :: active

Please turn your attention to the following entry.
Prompt line: Short answer needed: outcome of this test for CCCCCCCCc1ccc(O)cc1 ?
Response line: inactive

* * *

TEST_METHOD_NOTES: ATG_Ets_CIS: Attagene CIS-FACTORIAL HepG2 Assay for human Erythroblast Transformation Specific (ETS) (AID 2282941)
CONDITION_LABEL: HepG2 ETS cis-reporter transcription, actives raise or lower the signal
Activity calls are given as the source filed them. How the source made its calls: active means hit-call score of the fitted dose curve at least 0.9, where 1 is the maximum; inactive means score below 0.9.
Tick one outcome: t for active, f for inactive

Solved cases (6 shown):
CC(=[OH+])/C=C(/C)[O-].CC(=[OH+])/C=C(/C)[O-].CC(=[OH+])/C=C(/C)[O-].[Fe] :: f
C=CC(=O)OCCCCCC(C)C :: f
Cl/C=C/Cl :: f
ClCc1ccccn1 :: f
CCCCC(CC)CO[N+](=O)[O-] (centres undefined) :: f
N#Cc1ccccn1 :: f

Prompt line: Short answer needed: outcome of this test for O=C(O)C(F)(F)C(F)(F)C(F)(F)C(F)(F)C(F)(F)C(F)(F)F ?
Response line: f

Prompt line: Short answer needed: outcome of this test for C[C@H]1O[C@@H](O[C@H]2[C@@H](O)C[C@H](O[C@H]3[C@@H](O)C[C@H](O[C@H]4CC[C@@]5(C)[C@H](CC[C@@H]6[C@@H]5CC[C@]5(C)[C@@H](C7=CC(=O)OC7)CC[C@]65O)C4)O[C@@H]3C)O[C@@H]2C)C[C@H](O)[C@@H]1O ?
Response line: t

Prompt line: Short answer needed: outcome of this test for COc1ccc(OC)c(C=O)c1 ?
Response line: f

* * *

TEST_METHOD_NOTES: BSK_3C_TissueFactor: BioMAP Diversity Plus: 3C Assay for Tissue Factor Biomarker Activity (AID 2282997)
CONDITION_LABEL: BioMAP 3C HUVEC, tissue factor biomarker readout; actives raise or lower the signal
Calls of active or inactive are those of the source. How the source made its calls: active means hit-call score of the fitted dose curve at least 0.9, where 1 is the maximum; inactive means score below 0.9.
REPORTED_PROPERTY: outcome

Reference set (5 entries):
ClC1(Cl)C2(Cl)C3(Cl)C4(Cl)C(Cl)(Cl)C5(Cl)C3(Cl)C1(Cl)C5(Cl)C24Cl (stereo unspecified) :: inactive
CN(C)N=O :: inactive
COP(=S)(OC)Oc1ccc(S(=O)(=O)N(C)C)cc1 :: inactive
CCSC(C)CC1CC(=O)C(C(CC)=NOC/C=C/Cl)=C(O)C1 (stereo unspecified) :: inactive
CC1(C)Cc2cccc(O)c2O1 :: inactive

Continue with the compound presented below.
The compound listed as COc1cc(OC)nc(NC(=O)NS(=O)(=O)c2ncccc2C(=O)N(C)C)n1 has a reported outcome of inactive

* * *

TEST_METHOD_NOTES: BSK_hDFCGF_SRB: Viability Assessment in the BioMAP Diversity Plus: hDFCGF Assay (AID 2283061);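 note: cells exposed to compound for 24 h before the read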
CONDITION_LABEL: primary human foreskin fibroblasts
The source made the active and inactive calls. How the source made its calls: active means hit-call score of the fitted dose curve at least 0.9, where 1 is the maximum; inactive means score below 0.9.
REPORTED_PROPERTY: AC50

Reference set (10 entries):
C(=NC1CCCCC1)=NC1CCCCC1 :: 13.8 µM (active)
C[C@]12CCC(=O)C[C@@H]1CC[C@@H]1[C@@H]2CC[C@]2(C)[C@@H](O)CC[C@@H]12 :: inactive
COC[C@H](C)N(C(=O)CCl)c1c(C)csc1C :: inactive
CCOP(=S)(OCC)SCSP(=S)(OCC)OCC :: inactive
ClCC(Cl)CCl :: inactive
CCCCCCCCc1ccc(O)cc1 :: 26.4 µM (active)
O=C(O)CCC(F)(C(F)(F)F)C(F)(F)F :: inactive
O=Cc1cccc(Oc2ccccc2)c1 :: inactive
Nc1ncc([N+](=O)[O-])s1 :: inactive
O=c1[nH]c(=O)[nH]c(=O)[nH]1 :: inactive

The compound listed as COc1cc(OC)nc(NC(=O)NS(=O)(=O)c2ncccc2C(=O)N(C)C)n1 has a reported AC50 of inactive

The compound listed as NC(=O)O has a reported AC50 of inactive

The compound listed as O=C1C2(Cl)C3(Cl)C4(Cl)C(Cl)(Cl)C5(Cl)C3(Cl)C1(Cl)C5(Cl)C24Cl (centres undefined) has a reported AC50 of 16.4 µM (active)

The compound listed as C=CC(=O)OCCCCCC(C)C has a reported AC50 of inactive

The compound listed as O=C(Nc1ccc2[nH]ccc2c1)c1cc2cc(F)ccc2n1Cc1cccc(F)c1 has a reported AC50 of 3.36 µM (active)

The compound listed as ClC(Cl)=C(Cl)C(Cl)=C(Cl)Cl has a reported AC50 of inactive

The compound listed as Nc1cccc2ccccc12 has a reported AC50 of 32 µM (active)

* * *

Read-out: Tumor necrosis factor (Homo sapiens)
TEST_METHOD_NOTES: BSK_BT_xTNFa: BioMAP Diversity Plus: BT Assay for Tumor necrosis factor alpha (TNF-alpha) Biomarker Activity (AID 2284230)
CONDITION_LABEL: primary human B cells with PBMC
The source made the active and inactive calls. Rule for the calls: active = hit-call score of the fitted dose curve at least 0.9, where 1 is the maximum; inactive = score below 0.9.
Tick one outcome: label 1 (active), label 0 (inactive)

Solved cases (7 shown):
CCOC(=O)/C=C(C)/C=C/C[C@@H](C)CCCC(C)C :: label 1
CC(=O)C(Cl)C(=O)N(C)C (stereo not drawn) :: label 1
NC(=S)Nc1ccccc1 :: label 0
O=C(O)C(F)(F)C(F)(F)C(F)(F)C(F)(F)C(F)(F)C(F)(F)F :: label 0
O=C(O)C(F)(F)C(F)(F)C(F)(F)C(F)(F)C(F)(F)C(F)(F)C(F)(F)C(F)(F)C(F)(F)C(F)(F)F :: label 0
Oc1ccc(-c2ccccc2)cc1 :: label 0
OCc1ccco1 :: label 0

Please turn your attention to the following entry.
Prompt line: Short answer needed: outcome of this test for BrCCBr ?
Response line: label 0

* * *

ASSAYED_TARGET: Hepatocyte nuclear factor 3-beta (Homo sapiens)
TEST_METHOD_NOTES: ATG_FoxA2_CIS: Attagene CIS-FACTORIAL HepG2 Assay for human Forkhead box A2 (FOXA2) (AID 2282942)
CONDITION_LABEL: HepG2 cis-reporter transcription factor activity, 24 h; actives raise or lower the signal
The source made the active and inactive calls. The calls were made as follows: active = hit-call score of the fitted dose curve at least 0.9, where 1 is the maximum; inactive = score below 0.9.
Tick one outcome: active, inactive

Solved cases (5 shown):
Oc1ccc(-c2ccccc2)cc1 :: inactive
C[C@]12CC[C@H](O)CC1=CC[C@@H]1[C@@H]2CC[C@]2(C)C(=O)CC[C@@H]12 :: inactive
O=P(O)(O)CN(CP(=O)(O)O)CP(=O)(O)O :: inactive
Nc1cccc2ccccc12 :: inactive
CCOC(=O)CP(=O)(OCC)OCC :: inactive

Please turn your attention to the following entry.
Prompt line: Short answer needed: outcome of this test for c1ccc(N=NNc2ccccc2)cc1 ?
Response line: active
